z-score for assorted compounds
ASSAY_DETAILS: basal 3T3-L1 adipocyte mitochondrial potential changes, profiling panel, cell-based, JC-1 fluorescence, 3T3-L1 adipocytes, 24 h, 100 nL compound (AID 1168); further: test concentration not given here
REPORTED_CONDITIONS: JC-1 mitochondrial fluorescence, higher = more signal, called active from +8 up or from −8 down
Calls of active or inactive are those of the source.

Please review the following examples before continuing.
COMPOUND	z-score
COC(=O)[C@H](Cc1ccccc1)N1CC(/C=C/C2CC2)=C[C@@H]1[C@@H](O)Cc1ccccc1	0.427 (inactive)
Cc1ccc(F)cc1S(=O)(=O)N[C@@H]1CCN(Cc2ccc(OC(C)C)cc2)C1	0.0582 (inactive)
O=C1OC[C@@H](c2ccccc2)N2CC(/C=C/c3ccccc3)=CC12 (stereo not given in full)	0.291 (inactive)

Lookup: Which measured z-score value corresponds to O=C1O[C@@H](c2ccccc2)[C@@H](c2ccccc2)N2[C@@H](c3ccccc3OCCO)[C@]3(C(=O)Nc4ccc(C#CCCO)cc43)[C@@H](C(=O)Nc3nc4ccccc4s3)[C@H]12 ?
Found: 0.856 (inactive)

Lookup: Same question, CN(C)CCCNC(=O)[C@@]1(C)c2ccccc2C(=O)N(Cc2cc(C(F)(F)F)cc(C(F)(F)F)c2)[C@H]1c1ccc(CO)cc1 this time
Found: -0.36 (inactive)

Lookup: Next entry: C[C@]1(C(=O)NCCN2CCOCC2)c2ccccc2C(=O)N(Cc2ccc(OC(F)(F)F)cc2)[C@H]1c1ccc(CO)cc1
Found: -0.446 (inactive)

Lookup: Would you kindly repeat that for COCCOC(=O)N1C(=O)[C@@]2(c3cc(C#Cc4ccc(OC)cc4)ccc31)[C@H](C(=O)N1CCN(c3ncccn3)CC1)[C@H]1C(=O)O[C@H](c3ccccc3)[C@H](c3ccccc3)N1[C@@H]2c1ccccc1OCCO ?
Found: 2.03 (inactive)

Lookup: Then what about the compound C=CCOC(=O)[C@@H]1[C@H]2C(=O)O[C@H](c3ccccc3)[C@H](c3ccccc3)N2[C@H](c2ccc(OCCOC(=O)[C@H]3C[C@H]4C(=O)N[C@@H](CC(C)C)C(=O)N4[C@H]3c3ccc(O)cc3)cc2)[C@@]12C(=O)Nc1ccc(I)cc12 ?
Found: 3.06 (inactive)

Lookup: Proceed to CC(C)CNC(=O)[C@@]1(c2ccc([N+](=O)[O-])cc2)CC(=O)N(C2CCCCC2)[C@@H]1c1ccc(CO)cc1I
Found: -0.472 (inactive)

Lookup: What would you report for CCOC(=O)C[C@H]1[C@H](OC(=O)Cc2ccc3c(c2)OCO3)[C@@H](NC(=O)C2CCCCC2)c2cc(OCCCO)ccc2N1C(=O)c1ccc2ccccc2n1 ?
Found: 0.436 (inactive)

====

Measured composite z-score, listed per entry.
Tested on: PRMT1 (protein arginine N-methyltransferase 1)
ASSAY_DETAILS: PRMT1 binders on small-molecule microarrays, primary screen, biochemical, small-molecule microarray, 635 nm fluorescence (AID 1088);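 further: binding of Prmt1 protein to compounds spotted on small-molecule microarray slides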
REPORTED_CONDITIONS: small-molecule microarray binding, higher = more signal
In your answer, state the number alone without any accompanying words.

STRUCTURE_STRING	composite z-score
Cc1ccc(S[C@]2(C(=O)NCc3ccccc3)CC(=O)N(C(C)C)[C@@H]2c2ccc(CO)cc2I)cc1	0.448
C=CCNC(=O)[C@@H]1[C@H]2C(=O)O[C@H](c3ccccc3)[C@H](c3ccccc3)N2[C@H](c2ccc(OCCO)cc2)[C@@]12C(=O)N(C(=O)OCCOC)c1ccc(C#CC3=CCCCC3)cc12	1.55
CCCN1C(=O)[C@]2(Cc3ccccc3)N=C(c3ccc(OCCCO)cc3)O[C@@H]2c2ccccc21	1.54

Lookup: Can you share its composite z-score? I mean this molecule: COc1ccc([Si](C)(C)[C@H]2[C@H](CCn3cc(CCO)nn3)O[C@@]3(C(=O)N(Cc4ccc(N5C(=O)c6cccc7cccc5c67)cc4)c4ccccc43)[C@@H]2C)cc1
Found: 1.55

Lookup: And the next one, COC(=O)[C@@]1(Cc2ccccc2)[C@H]2c3cc(C(=O)N4CCCC4)[nH]c3C[C@H]2CN1C(=O)c1ccccc1 ?
Found: -1.74

Lookup: Quick one: COc1cc(CO)cc(I)c1O[C@H]1C=C(C(=O)NCCO)C[C@@H](N(CC2CCCCC2)C(=O)c2ccc(C(F)(F)F)cc2)[C@@H]1O
Found: 1.23

Provenance of the data: PubChem BioAssay
